Cited source: the supplement of paper PMC7877785

self-splicing fitness (ln) for assorted sequences
test.summary: self-splicing fitness, log relative to wild type (ln ratio); higher = more splicing; Tetrahymena group I intron in knt gene, E. coli kanamycin selection, DiMSum; sequences stand for … in CUCUCU…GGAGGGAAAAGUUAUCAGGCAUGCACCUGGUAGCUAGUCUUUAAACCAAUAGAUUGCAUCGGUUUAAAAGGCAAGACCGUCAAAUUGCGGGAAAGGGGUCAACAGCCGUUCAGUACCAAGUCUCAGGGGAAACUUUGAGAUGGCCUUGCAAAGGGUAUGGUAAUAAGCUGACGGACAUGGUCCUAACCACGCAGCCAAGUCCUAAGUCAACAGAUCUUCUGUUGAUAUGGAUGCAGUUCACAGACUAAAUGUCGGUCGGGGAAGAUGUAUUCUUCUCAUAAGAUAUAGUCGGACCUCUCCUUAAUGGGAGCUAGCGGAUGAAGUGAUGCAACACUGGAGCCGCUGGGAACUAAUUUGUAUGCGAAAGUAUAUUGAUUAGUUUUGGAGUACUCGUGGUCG;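 also: selection with 25 µg/mL kanamycin versus none on LB agar overnight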
condition.label: 30 °C

Examples with their reported self-splicing fitness (ln) follow.
{"input.sequence": "CCCUAGCAAUAUUACGCGAU", "self-splicing fitness (ln)": -3.74}
{"input.sequence": "UCUAAGCAAUAUUACGCCGG", "self-splicing fitness (ln)": -1.15}
{"input.sequence": "UCCAAGCAAUAUUACGUCAA", "self-splicing fitness (ln)": -2.68}
{"input.sequence": "CCAAAGCAAUAUUACGAUCG", "self-splicing fitness (ln)": 0.0481}
{"input.sequence": "GGACAGCAAUAUUACGUGGC", "self-splicing fitness (ln)": -3.02}
{"input.sequence": "GCGGAGCAAUAUUACGAAGU", "self-splicing fitness (ln)": -3.58}
{"input.sequence": "CUGGAGCAAUAUUACGUAAA", "self-splicing fitness (ln)": -3.78}
{"input.sequence": "AUAAAGCAAUAUUACGGCGC", "self-splicing fitness (ln)": 0.0765}
{"input.sequence": "GGCAAGCAAUAUUACGUAAU", "self-splicing fitness (ln)": 0.0253}
{"input.sequence": "UCCAAGCAAUAUUACGACCU", "self-splicing fitness (ln)": -2.9}

// moving on: another record for self-splicing fitness (ln)
Query (sequence): UGACAGCAAUAUUACGUCGA ; field requested: self-splicing fitness (ln)
-0.222

---

test.summary: self-splicing fitness, log relative to wild type (ln ratio); higher = more splicing; Tetrahymena group I intron in knt gene, E. coli kanamycin selection, DiMSum; sequences stand for … in CUCUCU…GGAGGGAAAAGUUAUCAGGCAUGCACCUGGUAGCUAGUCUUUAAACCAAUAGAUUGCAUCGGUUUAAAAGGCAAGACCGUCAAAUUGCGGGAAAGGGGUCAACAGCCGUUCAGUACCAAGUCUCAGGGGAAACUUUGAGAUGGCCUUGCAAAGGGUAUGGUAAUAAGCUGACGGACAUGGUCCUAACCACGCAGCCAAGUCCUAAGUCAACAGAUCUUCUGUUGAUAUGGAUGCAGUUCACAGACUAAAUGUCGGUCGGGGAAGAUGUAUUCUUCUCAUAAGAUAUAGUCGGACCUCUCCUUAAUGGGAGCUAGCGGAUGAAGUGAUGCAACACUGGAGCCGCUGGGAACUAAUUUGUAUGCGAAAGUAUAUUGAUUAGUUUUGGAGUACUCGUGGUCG
condition.label: 30 °C
readout.type: self-splicing fitness (ln)
Give only the figure.

Examples with their reported self-splicing fitness (ln) follow.
{"input.sequence": "CGUAAGCAAUAUUACGGUAC", "result.number": -3.29}
{"input.sequence": "CAGAAGCAAUAUUACGAGCC", "result.number": -3.03}
{"input.sequence": "GAUUAGCAAUAUUACGGUGG", "result.number": -2.89}

Query (sequence): GCCUAGCAAUAUUACGGGUA ; field requested: self-splicing fitness (ln)
-0.787

Query (sequence): UAACAGCAAUAUUACGUCUU ; field requested: self-splicing fitness (ln)
-1.12

Query (sequence): UACAAGCAAUAUUACGGCGA ; field requested: self-splicing fitness (ln)
-0.244

---

self-splicing fitness (ln) for assorted sequences
test.summary: self-splicing fitness, log relative to wild type (ln ratio); higher = more splicing; Tetrahymena group I intron in knt gene, E. coli kanamycin selection, DiMSum; sequences stand for … in CUCUCU…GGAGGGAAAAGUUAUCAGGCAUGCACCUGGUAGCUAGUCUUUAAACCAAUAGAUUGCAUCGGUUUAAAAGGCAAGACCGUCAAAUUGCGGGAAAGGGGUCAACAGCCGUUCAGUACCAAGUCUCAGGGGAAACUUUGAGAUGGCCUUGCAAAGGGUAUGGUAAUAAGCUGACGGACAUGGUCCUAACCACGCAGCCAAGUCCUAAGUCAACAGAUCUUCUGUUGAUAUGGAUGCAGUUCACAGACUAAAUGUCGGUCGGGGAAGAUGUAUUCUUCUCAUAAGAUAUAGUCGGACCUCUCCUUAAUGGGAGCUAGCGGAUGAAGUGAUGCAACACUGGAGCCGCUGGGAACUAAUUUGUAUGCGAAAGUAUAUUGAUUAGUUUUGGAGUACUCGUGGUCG
condition.label: 30 °C
Give only the figure.

{"input.sequence": "GCCUAGCAAUAUUACGACCA", "self-splicing fitness (ln)": -1.08}

Query (sequence): UGGCAGCAAUAUUACGUGCU ; field requested: self-splicing fitness (ln)
-2.71

Query (sequence): GGAGAGCAAUAUUACGUCUU ; field requested: self-splicing fitness (ln)
-4.08

Query (sequence): AAAUAGCAAUAUUACGACUU ; field requested: self-splicing fitness (ln)
0.559

Query (sequence): UACGAGCAAUAUUACGAAUA ; field requested: self-splicing fitness (ln)
-3.28

Query (sequence): UGUAAGCAAUAUUACGCUAU ; field requested: self-splicing fitness (ln)
-3.7

Query (sequence): GCGCAGCAAUAUUACGCAUA ; field requested: self-splicing fitness (ln)
-0.539

Query (sequence): UGACAGCAAUAUUACGAUAA ; field requested: self-splicing fitness (ln)
-0.561

Query (sequence): UAUUAGCAAUAUUACGAAAG ; field requested: self-splicing fitness (ln)
-2.42

Query (sequence): AAGUAGCAAUAUUACGAUUU ; field requested: self-splicing fitness (ln)
0.429

Query (sequence): UAAUAGCAAUAUUACGAUGC ; field requested: self-splicing fitness (ln)
-3.45

---

test.summary: self-splicing fitness, log relative to wild type (ln ratio); higher = more splicing; Tetrahymena group I intron in knt gene, E. coli kanamycin selection, DiMSum; sequences stand for … in CUCUCU…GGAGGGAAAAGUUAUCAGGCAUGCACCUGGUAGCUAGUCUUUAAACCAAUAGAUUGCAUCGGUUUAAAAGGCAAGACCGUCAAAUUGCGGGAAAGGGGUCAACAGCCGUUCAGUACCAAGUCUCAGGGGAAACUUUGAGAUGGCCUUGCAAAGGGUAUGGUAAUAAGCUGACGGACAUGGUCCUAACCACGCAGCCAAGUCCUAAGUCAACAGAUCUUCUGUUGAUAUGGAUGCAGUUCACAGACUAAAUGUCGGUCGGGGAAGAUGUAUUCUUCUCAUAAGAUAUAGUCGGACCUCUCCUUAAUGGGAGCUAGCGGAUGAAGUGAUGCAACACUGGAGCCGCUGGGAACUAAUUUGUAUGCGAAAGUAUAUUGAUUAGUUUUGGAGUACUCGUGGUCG
condition.label: 30 °C
readout.type: self-splicing fitness (ln)
Give only the figure.

Examples with their reported self-splicing fitness (ln) follow.
{"input.sequence": "CCGAAGCAAUAUUACGAUCU", "self-splicing fitness (ln)": -3.36}
{"input.sequence": "GGAAAGCAAUAUUACGGUGC", "self-splicing fitness (ln)": -3.36}
{"input.sequence": "ACUUAGCAAUAUUACGAACA", "self-splicing fitness (ln)": -1.35}
{"input.sequence": "GCAAAGCAAUAUUACGGGUC", "self-splicing fitness (ln)": -2.55}
{"input.sequence": "CUGCAGCAAUAUUACGUAUG", "self-splicing fitness (ln)": -1.27}

Query (sequence): GUGAAGCAAUAUUACGAUUG ; field requested: self-splicing fitness (ln)
-1.38

Query (sequence): CGCAAGCAAUAUUACGUAAC ; field requested: self-splicing fitness (ln)
-3.76

Query (sequence): CCACAGCAAUAUUACGAUGA ; field requested: self-splicing fitness (ln)
-1.9

---

test.summary: self-splicing fitness, log relative to wild type (ln ratio); higher = more splicing; Tetrahymena group I intron in knt gene, E. coli kanamycin selection, DiMSum; sequences stand for … in CUCUCU…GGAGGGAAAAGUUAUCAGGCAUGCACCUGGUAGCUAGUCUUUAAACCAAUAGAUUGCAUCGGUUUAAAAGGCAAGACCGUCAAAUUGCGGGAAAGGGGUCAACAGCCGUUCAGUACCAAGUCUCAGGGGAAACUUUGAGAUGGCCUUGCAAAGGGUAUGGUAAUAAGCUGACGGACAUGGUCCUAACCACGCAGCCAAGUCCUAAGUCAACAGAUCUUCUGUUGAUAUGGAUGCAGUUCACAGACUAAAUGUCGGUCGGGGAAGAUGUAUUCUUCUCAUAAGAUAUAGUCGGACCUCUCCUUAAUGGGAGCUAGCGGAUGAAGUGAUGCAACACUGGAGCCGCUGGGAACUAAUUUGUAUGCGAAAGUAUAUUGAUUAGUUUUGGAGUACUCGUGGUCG
condition.label: 30 °C
self-splicing fitness (ln) for assorted sequences
Give only the figure.

Examples with their reported self-splicing fitness (ln) follow.
{"input.sequence": "ACUAAGCAAUAUUACGGCAU", "self-splicing fitness (ln)": -0.539}
{"input.sequence": "AAUAAGCAAUAUUACGUACA", "self-splicing fitness (ln)": -0.815}

Query (sequence): GAAAAGCAAUAUUACGAACA ; field requested: self-splicing fitness (ln)
-0.893

Query (sequence): CAAAAGCAAUAUUACGGCGA ; field requested: self-splicing fitness (ln)
-1.16

Query (sequence): UAGUAGCAAUAUUACGGACU ; field requested: self-splicing fitness (ln)
-0.0123

Query (sequence): CGAAAGCAAUAUUACGCAGU ; field requested: self-splicing fitness (ln)
-3.8

Query (sequence): UCCAAGCAAUAUUACGGUAU ; field requested: self-splicing fitness (ln)
-2.72

Query (sequence): GCUCAGCAAUAUUACGUGAC ; field requested: self-splicing fitness (ln)
-1.88

Query (sequence): CCUCAGCAAUAUUACGAAAA ; field requested: self-splicing fitness (ln)
-2.77

Query (sequence): GACAAGCAAUAUUACGAUGA ; field requested: self-splicing fitness (ln)
-0.527

Query (sequence): UCUCAGCAAUAUUACGGGAC ; field requested: self-splicing fitness (ln)
-2.31

Query (sequence): UAAUAGCAAUAUUACGAGGU ; field requested: self-splicing fitness (ln)
-3.06

Query (sequence): UGUGAGCAAUAUUACGGCAG ; field requested: self-splicing fitness (ln)
-2.64

Query (sequence): AGCCAGCAAUAUUACGCUGA ; field requested: self-splicing fitness (ln)
-2.75

Query (sequence): GAUCAGCAAUAUUACGUUAG ; field requested: self-splicing fitness (ln)
-2.05

Query (sequence): AAUAAGCAAUAUUACGUUUU ; field requested: self-splicing fitness (ln)
-1.78
